B1: HEEH_KT_rd6_0007 (parent)
chain: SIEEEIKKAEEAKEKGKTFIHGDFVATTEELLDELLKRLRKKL

variants of: B1; test: folding stability dG (cDNA display proteolysis); higher = more stable; conditions: PBS, room temperature
Threshold check on folding stability dG: at or above 1 kcal/mol gives fulfilled, strictly below gives not fulfilled.

1) I2T	not fulfilled
2) E34D	not fulfilled
3) F19G	not fulfilled
4) E5L	fulfilled
5) T27N	fulfilled
6) F24P	not fulfilled
7) E34S	not fulfilled
8) K41W	fulfilled
9) L35A	not fulfilled
10) L31G	not fulfilled
11) F24M	not fulfilled
12) V25F	fulfilled
13) A12E	not fulfilled
14) E5P	not fulfilled
15) T27F	fulfilled
16) T28H	not fulfilled
17) L36D	not fulfilled
18) E11T	fulfilled
19) F24I	fulfilled
20) G16I	fulfilled
21) G16A	not fulfilled
22) D23C	fulfilled
23) E11F	not fulfilled
24) A9G	not fulfilled
25) L35D	not fulfilled
26) L32A	not fulfilled
27) K15N	fulfilled
28) T28M	fulfilled
29) E29R	fulfilled
30) I20P	not fulfilled
31) K41F	not fulfilled
32) V25E	fulfilled
33) L32G	not fulfilled
34) E34Y	fulfilled
35) D33A	fulfilled
36) S1Q	fulfilled
37) L31V	not fulfilled
38) I6Q	not fulfilled
39) V25H	fulfilled
40) E14T	fulfilled
41) H21N	not fulfilled
42) E34G	not fulfilled
43) E30T	fulfilled
44) A9N	not fulfilled
45) T28F	fulfilled
46) D23Q	fulfilled
47) R40K	not fulfilled
48) I6F	not fulfilled
49) K15P	not fulfilled
50) I6T	not fulfilled
51) F24V	not fulfilled
52) K42A	fulfilled
53) L43R	fulfilled
54) A9C	fulfilled
55) E3Q	fulfilled
56) K42P	not fulfilled
57) L36Y	not fulfilled
58) K17G	fulfilled
59) K15H	fulfilled
60) K15E	not fulfilled
61) K13H	not fulfilled
62) L36E	not fulfilled
63) K7W	not fulfilled
64) E29C	fulfilled
65) K8A	fulfilled
66) L31P	not fulfilled
67) K15I	not fulfilled
68) A12T	not fulfilled
69) T28L	fulfilled
70) E11I	fulfilled
71) A12W	not fulfilled
72) K42S	fulfilled
73) F24H	not fulfilled
74) A12Y	not fulfilled
75) E5Y	fulfilled
76) I6P	not fulfilled
77) E30H	fulfilled
78) D23I	fulfilled
79) R38W	fulfilled
80) F24S	not fulfilled
81) F24Q	not fulfilled
82) K13P	not fulfilled
83) I20W	fulfilled
84) G22R	not fulfilled
85) E29V	fulfilled
86) A12S	not fulfilled
87) K15F	fulfilled
88) L36M	not fulfilled
89) K13D	not fulfilled
